B1: Azoarcus group I ribozyme (parent)
chain: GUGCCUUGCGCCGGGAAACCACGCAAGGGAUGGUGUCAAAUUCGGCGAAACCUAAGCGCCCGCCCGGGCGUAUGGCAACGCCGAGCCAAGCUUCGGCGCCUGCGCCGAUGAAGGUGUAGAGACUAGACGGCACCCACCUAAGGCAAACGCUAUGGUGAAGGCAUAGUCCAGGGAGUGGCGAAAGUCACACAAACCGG

- Variants of: B1
- PROTOCOL_SUMMARY: reverse-splicing fitness (ratio to wild type); higher = more active; in vitro selection; Mg2+ level not given
Parameter class (string): assigned from measured reverse-splicing fitness. Ranges: low band (below 0.005), middle band (0.005 to below 0.02), high band (0.02 or more)

>>> category("A111U A120G A145G C169G")
"high band"
>>> category("A120G")
"high band"
>>> category("C82U A111C A120U C150U C169G U176C")
"low band"
>>> category("A111G A120U C150G C169U U176G")
"low band"
>>> category("A111C A120C U176A")
"high band"
>>> category("C82U A120C C169U U176C")
"middle band"
>>> category("C82G A120G A145C C150A C169G U176A")
"high band"
>>> category("A111G A120C A145G C169G U176G")
"low band"
>>> category("C82G A111G A145U C169A U176G")
"middle band"
>>> category("C82U A111U A120C A145G C169U U176A")
"middle band"
>>> category("C82U A111C A120U A145G C169U U176G")
"low band"
>>> category("C82G A111U A120G A145C C150G C169U U176G")
"middle band"
>>> category("C82G A111U C150A C169U U176C")
"middle band"
>>> category("C82A A111U A120G A145G C150U C169G")
"middle band"
>>> category("A111U A120G A145C C150A C169U")
"middle band"
>>> category("C82U A111U A120C A145U C169G")
"middle band"
>>> category("C82U A111G A145U C150G U176C")
"high band"
>>> category("C82U A120G C150U C169G")
"middle band"
>>> category("C82G A120U A145G C150A C169U U176G")
"low band"
>>> category("C82U A111C A120C A145C C150G C169A U176A")
"middle band"
>>> category("C82U A111C A145C C150U C169U")
"middle band"
>>> category("C82A A120C A145G C150U C169A U176G")
"middle band"
>>> category("C82U A111G A120C A145G C169U")
"middle band"
>>> category("C82A A111G A120U A145G C150U C169A U176C")
"low band"
>>> category("C82A A120C A145C C150U C169U U176G")
"low band"
>>> category("C82A A111C A120U A145U C150G C169U U176G")
"low band"
>>> category("C82G A111G A120U A145C C169U U176G")
"low band"
>>> category("C82U A111G A145C C150U C169G")
"middle band"
>>> category("C82G A120C A145G C150U U176G")
"middle band"
>>> category("A120U A145C C150U C169G")
"high band"
>>> category("A111U A120U A145C C169A U176G")
"low band"
>>> category("C82U A111U A120U C150U C169G U176G")
"low band"
>>> category("C82G A120U A145U C150U C169A U176G")
"low band"
>>> category("C82U A111C A120G C150G C169A U176C")
"middle band"
>>> category("A111C A120U A145C C150A C169G U176C")
"low band"
>>> category("C82G A111C A120G A145C C150G C169A U176C")
"middle band"
>>> category("C82G A120U A145U C150A C169U U176G")
"low band"
>>> category("A145G C150A")
"high band"
>>> category("C82G A111G A120C A145U C150G U176C")
"middle band"
>>> category("C82G A120G A145U C150G C169A U176A")
"middle band"
>>> category("C82G A111G A120U A145C C150A C169G")
"low band"
>>> category("C82A A111G A120G A145G C150A U176A")
"middle band"
>>> category("A111G A120U C150A U176C")
"high band"
>>> category("A111G A120U A145U C150A")
"high band"

Values compiled from the RNAGym collection of RNA variant scans (doi:10.1093/molbev/msab373).
